ASSAY EXPLANATION: randomized 4-week study in OIC: SP-333 plasma levels
Type: in vivo, human
CONDITION PARAMETERS: human, plasma, 6 mg, subject 026-016; SP-333: 6 mg; visit week 4; time 30; read-out: SP-333 concentration
Positions of bridges follow the written chain, without caps; N, C: chain ends. Non-standard residues stand in square brackets, D forms with d. Residues, ends and D or L forms follow the SMILES beside them.
ASSAY ENDPOINT: level at 0.5 h

CC(C)C[C@@H]1NC(=O)[C@H](CCC(=O)O)NC(=O)[C@@H](NC(=O)[C@H](CCC(=O)O)NC(=O)[C@H](CC(=O)O)NC(=O)[C@H](N)CC(N)=O)CSSC[C@@H]2NC(=O)[C@H](C)NC(=O)[C@H](C(C)C)NC(=O)[C@H](CC(N)=O)NC(=O)[C@H](C(C)C)NC(=O)[C@H](CSSC[C@@H](C(=O)N[C@H](CC(C)C)C(=O)O)NC(=O)CNC(=O)[C@H]([C@@H](C)O)NC2=O)NC1=O [SP-333] (H-[dN]DECELCVNVACTGC[dL]-OH; disulfide 4-12, 7-15) = 1.88 ng/mL
